Test system: PC-3 prostate
Assay: NCI tumour cell line growth inhibition, 48 h
Below, each entry is listed alongside its reported TGI.

Known TGI results, listed for orientation:
1. O=S1(=O)OCCOS(=O)(=O)C1(F)Br; > 100 µM
2. NNC(=O)CS(=O)(=O)Nc1ncccn1; > 100 µM
3. O=C1OC(=O)C(=C\c2ccc3c(c2)OCO3)/C1=C/c1ccc2c(c1)OCO2; > 100 µM

Value wanted: TGI (PC-3 prostate) of entry CCN(CC)CC1CCCCN1CC(=O)N1c2ccccc2C(=O)Nc2cccnc21 (configuration not stated)
> 100 µM

Lab request: please report TGI under test system PC-3 prostate for OCC12C3C4C5C3C1C5C42 (configuration not stated)
> 100 µM

Find TGI (PC-3 prostate) for the entry COc1c(Br)cc2c(c1OC)C(Br)CCC(Br)(Br)C2=O (configuration not stated)
4.03 µM

Kindly state the measured TGI obtained for C=C(Br)CNC(=O)Nc1ccc(Cl)c(Cl)c1 with PC-3 prostate.
48 µM
